meta.source: paper PMC6150216

# TARGET_SYSTEM: yeast α-glucosidase
# RUN_DESCRIPTION: α-Glucosidase inhibitory activity assay
# TEST_CONDITIONS: compound concentration that inhibits α-glucosidase activity by 50%; acarbose positive control; read-out: IC50 against α-glucosidase
pIC50: −log10 of the molar value.
// not satisfied strictly below 4 in pIC50; satisfied otherwise

## Input Say whether CC1(C)CC[C@]2(C(=O)O)CC[C@]3(C)C(=CC[C@@H]4[C@@]5(C)CC[C@H](O[C@@H]6O[C@H](C(=O)O)[C@@H](O)[C@H](O)[C@H]6O)C(C)(C)[C@@H]5CC[C@]43C)[C@@H]2C1 [Compound 7, calenduloside E] shows pIC50 of 4 or more.
## Output satisfied

## Input Tell me whether pIC50 is at least 4 here: CC1(C)CC[C@]2(C=O)[C@@H](O)C[C@]3(C)C(=CC[C@@H]4[C@@]5(C)CC[C@H](O[C@@H]6O[C@H](C(=O)O)[C@@H](O)[C@H](O)[C@H]6O)C(C)(C)[C@@H]5CC[C@]43C)[C@@H]2C1 [Compound 1, Ligushicoside A]
## Output satisfied

## Input Quick check, pIC50 >= 4? CC1(C)CC[C@]2(CO)[C@@H](O)C[C@]3(C)C(=CC[C@@H]4[C@@]5(C)CC[C@H](O[C@@H]6O[C@H](C(=O)O)[C@@H](O)[C@H](O)[C@H]6O)C(C)(C)[C@@H]5CC[C@]43C)[C@@H]2C1 [Compound 6]
## Output satisfied

## Input Textbook exercise: given the entry COC(=O)[C@H]1O[C@@H](O[C@H]2CC[C@]3(C)[C@H]4CC=C5[C@@H]6CC(C)(C)CC[C@]6(C=O)[C@@H](O)C[C@@]5(C)[C@]4(C)CC[C@H]3C2(C)C)[C@H](O)[C@@H](O)[C@@H]1O [Compound 2, Ligushicoside B] , state whether its pIC50 is greater than or equal to 4.
## Output satisfied

## Input # check: pIC50 of COC(=O)[C@H]1O[C@@H](O[C@H]2CC[C@]3(C)[C@H]4CC=C5[C@@H]6CC(C)(C)CC[C@]6(C(=O)O)CC[C@@]5(C)[C@]4(C)CC[C@H]3C2(C)C)[C@H](O)[C@@H](O)[C@@H]1O [Compound 8, calenduloside E 6′-methyl ester] is greater than or equal to 4
## Output not satisfied

## Input Form field: pIC50 at least 4? Entry: COC(=O)[C@H]1O[C@@H](O[C@H]2CC[C@]3(C)[C@H]4CC=C5[C@@H]6CC(C)(C)CC[C@]6(CO)[C@@H](O)C[C@@]5(C)[C@]4(C)CC[C@H]3C2(C)C)[C@H](O)[C@@H](O)[C@@H]1O [Compound 5, Ligushicoside E]
## Output not satisfied
